- TEST_SYSTEM: PARK7 (Homo sapiens, UniProt Q99497)
- Sequence (Q99497 whole entry): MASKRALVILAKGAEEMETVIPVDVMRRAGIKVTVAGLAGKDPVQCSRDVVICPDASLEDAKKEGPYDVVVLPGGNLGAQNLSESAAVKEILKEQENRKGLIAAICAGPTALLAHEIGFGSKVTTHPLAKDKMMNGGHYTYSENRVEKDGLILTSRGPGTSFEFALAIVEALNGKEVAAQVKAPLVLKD
- METHOD_NOTES: High-throughput screen of the crude compound library, PARK7 fluorescence polarization (FP) assay with FP reagent JYQ-107
- Type: biochemical
- RECORDED_CONDITIONS: 1.25 µM, crude compound library; read-out: HTS FP assay %Inhibition (1.25 µM)
MEASURED_ATTRIBUTE: inhibition at 1.25 µM (%)

Form field inhibition at 1.25 µM for item N#CN1CC[C@@H](C(=O)Nc2nc3c(s2)CN(C(=O)c2cc(-c4ccc(Cl)s4)[nH]n2)CC3)C1 on PARK7 (Homo sapiens, UniProt Q99497): 90

Form field inhibition at 1.25 µM for item N#CN1CC[C@@H](C(=O)Nc2nc3c(s2)CN(C(=O)c2cnn(-c4ccccc4)n2)CC3)C1 on PARK7 (Homo sapiens, UniProt Q99497): 89.6

Form field inhibition at 1.25 µM for item N#CN1CC[C@@H](C(=O)Nc2nc3c(s2)CN(C(=O)Cc2cnn(-c4ccccc4)n2)CC3)C1 on PARK7 (Homo sapiens, UniProt Q99497): 78.9

Form field inhibition at 1.25 µM for item Cc1cc(C(=O)N2CCc3nc(NC(=O)[C@@H]4CCN(C#N)C4)sc3C2)c(C)n1-c1cccnc1 on PARK7 (Homo sapiens, UniProt Q99497): 67.7

Form field inhibition at 1.25 µM for item N#CN1CC[C@@H](C(=O)Nc2nc3c(s2)CN(C(=O)c2cc(-n4cccc4)ccn2)CC3)C1 on PARK7 (Homo sapiens, UniProt Q99497): 94.2

Form field inhibition at 1.25 µM for item N#CN1CC[C@@H](C(=O)Nc2nc3c(s2)CN(C(=O)C2=NNC(=O)C2c2ccccc2)CC3)C1 (stereo partly shown) on PARK7 (Homo sapiens, UniProt Q99497): 80.3

Form field inhibition at 1.25 µM for item N#CN1CC[C@@H](C(=O)Nc2nc3c(s2)CN(C(=O)C(Cc2ccccc2)N2CCCOC2=O)CC3)C1 (stereo partly shown) on PARK7 (Homo sapiens, UniProt Q99497): 74.6

Form field inhibition at 1.25 µM for item N#CN1CC[C@@H](C(=O)Nc2nc3c(s2)CN(C(=O)c2cc(S(=O)(=O)N4CCOCC4)c[nH]2)CC3)C1 on PARK7 (Homo sapiens, UniProt Q99497): 81

Form field inhibition at 1.25 µM for item Cc1nc(COc2ccc(C(=O)N3CCc4nc(NC(=O)[C@@H]5CCN(C#N)C5)sc4C3)cc2)no1 on PARK7 (Homo sapiens, UniProt Q99497): 84.8

Form field inhibition at 1.25 µM for item N#CN1CC[C@@H](C(=O)Nc2nc3c(s2)CN(C(=O)c2ccc(Cn4cncn4)cc2)CC3)C1 on PARK7 (Homo sapiens, UniProt Q99497): 80.2

Form field inhibition at 1.25 µM for item Cc1cccc(C(=O)N2CCCCC2C(=O)N2CCc3nc(NC(=O)[C@@H]4CCN(C#N)C4)sc3C2)n1 (stereo partly shown) on PARK7 (Homo sapiens, UniProt Q99497): 66.5

Form field inhibition at 1.25 µM for item Cc1ccc(C=CS(=O)(=O)N2CCC(C(=O)N3CCc4nc(NC(=O)[C@@H]5CCN(C#N)C5)sc4C3)CC2)cc1 on PARK7 (Homo sapiens, UniProt Q99497): 72

Form field inhibition at 1.25 µM for item Cc1nc(-c2cnn(C)c2)sc1C(=O)N1CCc2nc(NC(=O)[C@@H]3CCN(C#N)C3)sc2C1 on PARK7 (Homo sapiens, UniProt Q99497): 91.1

Form field inhibition at 1.25 µM for item CN1C(=O)C[C@@H](C(=O)N2CCc3nc(NC(=O)[C@@H]4CCN(C#N)C4)sc3C2)[C@@H]1c1cccnc1 on PARK7 (Homo sapiens, UniProt Q99497): 63.8

Form field inhibition at 1.25 µM for item N#CN1CC[C@@H](C(=O)Nc2nc3c(s2)CN(C(=O)[C@@H]2CCO[C@H]2c2ccccc2)CC3)C1 on PARK7 (Homo sapiens, UniProt Q99497): 63.3

Form field inhibition at 1.25 µM for item Cc1cc(C(=O)N(C)c2ccccc2C(=O)N2CCc3nc(NC(=O)[C@@H]4CCN(C#N)C4)sc3C2)sc1C on PARK7 (Homo sapiens, UniProt Q99497): 61.7

Form field inhibition at 1.25 µM for item N#CN1CC[C@@H](C(=O)Nc2nc3c(s2)CN(C(=O)CC2=NN(c4cccc(Cl)c4)C(=O)C2)CC3)C1 on PARK7 (Homo sapiens, UniProt Q99497): 71.9

Form field inhibition at 1.25 µM for item N#CN1CC[C@@H](C(=O)Nc2nc3c(s2)CN(C(=O)c2ccccc2OCc2cccs2)CC3)C1 on PARK7 (Homo sapiens, UniProt Q99497): 86.9

Form field inhibition at 1.25 µM for item CN(Cc1ccccc1)S(=O)(=O)c1ccc(C(=O)N2CCc3nc(NC(=O)[C@@H]4CCN(C#N)C4)sc3C2)cc1 on PARK7 (Homo sapiens, UniProt Q99497): 65.5

Form field inhibition at 1.25 µM for item N#CN1CC[C@@H](C(=O)Nc2nc3c(s2)CN(C(=O)c2ccc(OCc4cccnc4)cc2)CC3)C1 on PARK7 (Homo sapiens, UniProt Q99497): 76.2

Form field inhibition at 1.25 µM for item N#CN1CC[C@@H](C(=O)Nc2nc3c(s2)CN(C(=O)c2ccc(Oc4cccc(Cl)c4)cn2)CC3)C1 on PARK7 (Homo sapiens, UniProt Q99497): 89.7

Form field inhibition at 1.25 µM for item N#CN1CC[C@@H](C(=O)Nc2nc3c(s2)CN(C(=O)c2ccc(C#Cc4ccccc4)cc2)CC3)C1 on PARK7 (Homo sapiens, UniProt Q99497): 75.9

Form field inhibition at 1.25 µM for item N#CN1CC[C@@H](C(=O)Nc2nc3c(s2)CN(C(=O)c2sccc2S(=O)(=O)NC2CCCCCC2)CC3)C1 on PARK7 (Homo sapiens, UniProt Q99497): 75.9

Form field inhibition at 1.25 µM for item Cc1nc(-c2ccco2)ccc1C(=O)N1CCc2nc(NC(=O)[C@@H]3CCN(C#N)C3)sc2C1 on PARK7 (Homo sapiens, UniProt Q99497): 84.8

Form field inhibition at 1.25 µM for item N#CN1CC[C@@H](C(=O)Nc2nc3c(s2)CN(C(=O)c2noc(Cc4ccccc4F)n2)CC3)C1 on PARK7 (Homo sapiens, UniProt Q99497): 73.8

Form field inhibition at 1.25 µM for item N#CN1CC[C@@H](C(=O)Nc2nc3c(s2)CN(C(=O)c2cnn(-c4ccncc4)c2)CC3)C1 on PARK7 (Homo sapiens, UniProt Q99497): 66.3

Form field inhibition at 1.25 µM for item N#CN1CC[C@@H](C(=O)Nc2nc3c(s2)CN(C(=O)CCn2ccc(C(=O)N4CCCC4)n2)CC3)C1 on PARK7 (Homo sapiens, UniProt Q99497): 64.4

Form field inhibition at 1.25 µM for item Cn1cc(S(=O)(=O)N2CCOCC2)cc1C(=O)N1CCc2nc(NC(=O)[C@@H]3CCN(C#N)C3)sc2C1 on PARK7 (Homo sapiens, UniProt Q99497): 75.1

----------
- TEST_SYSTEM: PARK7 (Homo sapiens)
- METHOD_NOTES: Hit validation and pure-compound testing in the PARK7 FP assay with JYQ-107
- Type: biochemical
- RECORDED_CONDITIONS: crude compounds, 0.25 µM; read-out: % Inhibition 0.25 µM
MEASURED_ATTRIBUTE: inhibition at 0.25 µM (%)

Consider the reported inhibition at 0.25 µM for these compounds:
Reported inhibition at 0.25 µM ( CC(C)c1nc(Cn2cc(C(=O)N3CCc4nc(NC(=O)[C@@H]5CCN(C#N)C5)sc4C3)ccc2=O)cs1 [Compound 149] ) = 42.9

Reported inhibition at 0.25 µM ( N#CN1CC[C@@H](C(=O)Nc2nc3c(s2)CN(C(=O)c2cnn(-c4ccc(C(F)(F)F)cc4)c2)CC3)C1 [Compound 314] ) = 43.8

1. N#CN1CC[C@@H](C(=O)Nc2nc3c(s2)CN(C(=O)c2cccc(Cn4ccnc4)c2)CC3)C1 [Compound 215]
2. N#CN1CC[C@@H](C(=O)Nc2nc3c(s2)CN(C(=O)C2CN(S(=O)(=O)C4CC4)C2)CC3)C1 [Compound 174]
Kindly compare 1 with 2 and tell me which has the lower inhibition at 0.25 µM figure. Identify your pick by its label.
2
(2: 35%, 1: 52.1%)

1. N#CN1CC[C@@H](C(=O)Nc2nc3c(s2)CN(C(=O)c2cccc(COc4cccc(F)c4)c2)CC3)C1 [Compound 110]
2. N#CN1CC[C@@H](C(=O)Nc2nc3c(s2)CN(C(=O)c2cc(-n4cccc4)ccn2)CC3)C1 [Compound 279]
Kindly compare 1 with 2 and tell me which has the lower inhibition at 0.25 µM figure. Identify your pick by its label.
1

P. N#CN1CC[C@@H](C(=O)Nc2nc3c(s2)CN(C(=O)c2ccc(=O)n(C4CC4)c2)CC3)C1 [Compound 369]
Q. N#CN1CC[C@@H](C(=O)Nc2nc3c(s2)CN(C(=O)c2cc(-c4ccc(Cl)s4)[nH]n2)CC3)C1 [Compound 64]
Kindly compare P with Q and tell me which has the lower inhibition at 0.25 µM figure. Identify your pick by its label.
Q
(Q: 33.1%, P: 60.5%)

P. CCC1(Cn2cc(C(=O)N3CCc4nc(NC(=O)[C@@H]5CCN(C#N)C5)sc4C3)nn2)COC1 [Compound 83]
Q. Cc1csc(-c2cccc(C(=O)N3CCc4nc(NC(=O)[C@@H]5CCN(C#N)C5)sc4C3)c2)n1 [Compound 334]
In the pair P and Q , the larger recorded inhibition at 0.25 µM belongs to which? Identify your pick by its label.
Q
